Values compiled from patent US7732468B2.

- System: human leukemia cell line K562
- METHOD SUMMARY: Inhibition of cell proliferation (GI50) in K562 cells
- Format: cell-based
- MEASUREMENT CONTEXT: 48 h incubation
The label is true for GI50 below 600 nM and false for GI50 equal to or exceeding 600 nM.

- COc1cc(-c2nnc3sc(-c4ccc(C)cc4)nn23)cc(OC)c1OC [Entry B1]: true
- Cc1cccc(-c2nn3c(-c4ccc(Cl)cc4Cl)nnc3s2)c1 [K]: true
- COc1ccccc1-c1nnc2sc(-c3ccc(Br)cc3)nn12 [H]: false
- COc1ccc(-c2nn3c(-c4ccccc4Cl)nnc3s2)cc1OC [F]: false
- COc1ccccc1-c1nnc2sc(-c3cc4ccccc4o3)nn12 [Entry A1]: true

---

- Test system: human lymphoma cell line Raji
- METHOD SUMMARY: Caspase cascade activation in Raji cells
- Assay type: cell-based
- MEASUREMENT CONTEXT: RAJ1 cells, 48 h incubation, read-out: caspase potency EC50 RAJ1
Reported EC50 values follow for various compounds
ASSAY ENDPOINT: EC50 (µM)

- COc1ccc(-c2nn3c(-c4ccccc4Cl)nnc3s2)cc1OC [F]: 5.27
- CCN(CC)c1ccc(-c2nn3c(-c4ccccc4Cl)nnc3s2)cc1 [Entry G1]: 0.627
- Cc1ccccc1-c1nnc2sc(-c3ccc(N(C)C)cc3)nn12 [Entry I1]: 0.634
- CCN(CC)c1ccc(-c2nn3c(-c4cccnc4)nnc3s2)cc1 [D]: 5.07

---

- Test system: human colon carcinoma cell line HCT116
- METHOD SUMMARY: Caspase cascade activation in HCT116 cells
- Type: cell-based
- MEASUREMENT CONTEXT: HCT-116, 48 h incubation, read-out: caspase potency EC50 HCT116
- Experimental: Human breast cancer cell lines T-47D, human hepatocellular carcinoma cell line SNU398, human colon carcinoma cell line HCT116, human cancer cell line H11299, human Burkitt's lymphoma cell line Namalwa, human lymphoma cell line Raji, and human B cell lymphoblastoid cell line Ramos were grown according to media component mixtures designated by American Type Culture Collection+10% FCS (Invitrogen Corporation), in a 5% CO2-95% humidity incubator at 37° C. […]
pEC50: −log10 of the molar value.
pEC50 below 6 gives Not fulfilled; pEC50 at or above it gives Fulfilled.

* COc1ccc(-c2nn3c(-c4cc(OC)c(OC)c(OC)c4)nnc3s2)cc1OC | Not fulfilled
* COc1ccc(-c2nn3c(-c4ccc(Cl)cc4)nnc3s2)cc1 | Not fulfilled
* COc1ccc(-c2nn3c(-c4ccccc4Cl)nnc3s2)cc1OC | Not fulfilled
* CCc1nn(C)c(-c2nnc3sc(-c4ccc(OC)cc4)nn23)c1Cl | Not fulfilled
* COc1cc(-c2nnc3sc(-c4ccc(C)c(C)c4)nn23)cc(OC)c1OC | Fulfilled
* COc1ccccc1-c1nnc2sc(-c3cc4ccccc4o3)nn12 | Fulfilled
* COc1cc(-c2nnc3sc(-c4cccs4)nn23)cc(OC)c1OC | Not fulfilled

---

- Test system: human leukemia cell line K562
- METHOD SUMMARY: Inhibition of cell proliferation (GI50) in K562 cells
- Format: cell-based
- MEASUREMENT CONTEXT: 48 h incubation
Let's look at some molecules and their measured log10 of GI50.
ASSAY ENDPOINT: log10 of GI50 (log10 of the value in nM)

• COc1ccc(-c2nn3c(-c4ccccc4OC)nnc3s2)cc1OC = 3.32
• COc1cccc(-c2nn3c(-c4cc(OC)c(OC)c(OC)c4)nnc3s2)c1 = 3.44
• COc1cc(-c2nnc3sc(-c4ccc(C)c(C)c4)nn23)cc(OC)c1OC = 2.12
• Clc1ccccc1-c1nnc2sc(-c3ccc4c(c3)OCCO4)nn12 = 3.27
• COc1cc(-c2nnc3sc(-c4ccco4)nn23)cc(OC)c1OC = 2.18

---

// values below are reported EC50
- Tested on: human colon carcinoma cell line HCT116
- METHOD SUMMARY: Caspase cascade activation in HCT116 cells
- Type: cell-based
- MEASUREMENT CONTEXT: HCT-116, 48 h incubation, read-out: caspase potency EC50 HCT116
ASSAY ENDPOINT: EC50 (µM)

• COc1cccc(-c2nnc3sc(-c4ccc(N(C)C)cc4)nn23)c1 [Entry D1] = 2.27
• CCc1cc(-c2nnc3sc(-c4ccc(C)cc4)nn23)n(C)n1 = 5.45
• COc1cc(-c2nnc3sc(-c4ccncc4)nn23)cc(OC)c1OC = 2.36
• COc1ccccc1-c1nnc2sc(-c3ccc4cc[nH]c4c3)nn12 = 0.663
• CCN(CC)c1ccc(-c2nn3c(-c4ccccc4Cl)nnc3s2)cc1 = 1.38
• COc1ccc(-c2nn3c(-c4n[nH]c5c4CCC5)nnc3s2)cc1OC = 2.76

---

- Test system: human colon carcinoma cell line HCT116
- METHOD SUMMARY: Caspase cascade activation in HCT116 cells
- Type: cell-based
- MEASUREMENT CONTEXT: HCT-116, 48 h incubation, read-out: caspase potency EC50 HCT116
pEC50: −log10 of the molar value.
ASSAY ENDPOINT: pEC50

* COc1ccccc1-c1nnc2sc(-c3ccc(N4CCOCC4)cc3)nn12 [Entry 9] | 5.58
* CCN(CC)c1ccc(-c2nn3c(-c4ccccc4C)nnc3s2)cc1 [Entry F1] | 5.76
* COc1cc(-c2nnc3sc(-c4ccco4)nn23)cc(OC)c1OC [R] | 6.67

---

- System: human lymphoma cell line Raji
- METHOD SUMMARY: Caspase cascade activation in Raji cells
- Format: cell-based
- MEASUREMENT CONTEXT: RAJ1 cells, 48 h incubation, read-out: caspase potency EC50 RAJ1
ASSAY ENDPOINT: EC50 (nM)

* COc1ccc(-c2nn3c(-c4ccccc4Cl)nnc3s2)cc1 | 1560
* CCN(CC)c1ccc(-c2nn3c(-c4ccncc4)nnc3s2)cc1 | 1060
* Cc1ccc(-c2nn3c(-c4n[nH]c5c4CCC5)nnc3s2)cc1 | 81

---

- Test system: human colon carcinoma cell line HCT116
- METHOD SUMMARY: Caspase cascade activation in HCT116 cells
- Assay type: cell-based
- MEASUREMENT CONTEXT: HCT-116, 48 h incubation, read-out: caspase potency EC50 HCT116
pEC50: −log10 of the molar value.
ASSAY ENDPOINT: pEC50

* COc1cc(-c2nnc3sc(-c4ccc(C)cc4)nn23)cc(OC)c1OC [Entry B1] | 6.19
* COc1ccc(-c2nn3c(-c4ccccc4OC)nnc3s2)cc1N [Entry 7] | 7.68
* CCc1cc(-c2nnc3sc(-c4ccc(OC)cc4)nn23)n(C)n1 [C] | 5.34

---

- Tested on: human B cell lymphoblastoid cell line Ramos
- METHOD SUMMARY: Caspase cascade activation in Ramos cells
- Type: cell-based
- MEASUREMENT CONTEXT: 48 h incubation, read-out: caspase potency EC50 RAMOS
Reported EC50 values follow for various compounds
ASSAY ENDPOINT: EC50 (nM)

- COc1cc(-c2nnc3sc(-c4ccc(C)cc4)nn23)cc(OC)c1OC: 379
- Clc1ccccc1-c1nnc2sc(-c3ccc4c(c3)OCCO4)nn12: 532
- Cc1cccc(-c2nn3c(-c4ccc(Cl)cc4Cl)nnc3s2)c1: 387
- COc1ccccc1-c1nnc2sc(-c3cc4ccccc4o3)nn12: 115
- COc1ccc(-c2nn3c(-c4cc(OC)c(OC)c(OC)c4)nnc3s2)cc1: 2440
- CCc1cc(-c2nnc3sc(-c4ccc(OC)cc4)nn23)n(C)n1: 566
- Cc1ccc(-c2nn3c(-c4n[nH]c5c4CCC5)nnc3s2)cc1: 40
- CN(C)c1ccc(-c2nnc3sc(-c4cccc(N(C)C)c4)nn23)cc1: 5330
- CN(C)c1ccc(-c2nn3c(-c4ccncc4)nnc3s2)cc1: 3920

---

- Test system: Human breast cancer cell lines T-47D
- METHOD SUMMARY: Inhibition of cell proliferation (GI50, CellTiter-Glo) in T-47D cells
- Type: cell-based
- MEASUREMENT CONTEXT: T47D cells, 48 h incubation
# GI50 annotations
ASSAY ENDPOINT: GI50 (nM)

- COc1ccc(-c2nn3c(-c4ccccc4Cl)nnc3s2)cc1OC: 4030
- CCN(CC)c1ccc(-c2nn3c(-c4n[nH]c5c4CCC5)nnc3s2)cc1: 167
- COc1ccccc1-c1nnc2sc(-c3ccc(Br)cc3)nn12: 217

---

The entries below come with measured EC50 values attached.
- System: human colon carcinoma cell line HCT116
- METHOD SUMMARY: Caspase cascade activation in HCT116 cells
- Assay type: cell-based
- MEASUREMENT CONTEXT: HCT-116, 48 h incubation, read-out: caspase potency EC50 HCT116
ASSAY ENDPOINT: EC50 (µM)

• CCN(CC)c1ccc(-c2nn3c(-c4n[nH]c5c4CCC5)nnc3s2)cc1 [Entry K1] = 1.02
• Cc1cccc(-c2nn3c(-c4ccc(Cl)cc4Cl)nnc3s2)c1 [K] = 0.661
• Cc1ccccc1-c1nnc2sc(-c3ccc(N(C)C)cc3)nn12 [Entry I1] = 1.33
